TEST DESCRIPTION: BSK_4H_SRB: Viability Assessment in the BioMAP Diversity Plus: 4H Assay (AID 2283027);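 further: cells exposed to compound for 24 h before staining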;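 on AC50: curves fitted both ways versus DMSO so AC50 may be loss or gain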
CONDITION SET: primary human endothelial cells (HUVEC)
Protocol: BSK_4H is a cell-based, multiplexed-readout assay that uses umbilical vein endothelium, a human vascular primary cell, with measurements taken at 24 hours after chemical dosing in a 96-well plate.BSK_4H_SRB is an assay component measured in the BSK_4H assay. It measures […] related to cell death using Sulforhodamine staining technology.Data from the assay component BSK_4H_SRB was analyzed into 1 assay endpoint. […]
The source made the active and inactive calls. How the source made its calls: active means hit-call score of the fitted dose curve at least 0.9, where 1 is the maximum; inactive means score below 0.9.
REPORTED METRIC: AC50

Fill in the blank: the reported AC50 of "COc1ccccc1NC(=O)CC(C)=O" is ____. inactive

Would you kindly share the measured AC50 for "C=C(C)C(=O)OCCC(F)(F)C(F)(F)C(F)(F)C(F)(F)C(F)(F)C(F)(F)C(F)(F)C(F)(F)F" ? inactive

For the compound "C=C1CC/C=C(\C)CC[C@@H]2[C@@H]1CC2(C)C" , what AC50 is on record? 31.9 µM (active)

Report AC50 for "C=C(C)C(N)=O" please. inactive

Which measured AC50 value corresponds to "c1ccc(Sc2ccccc2)cc1" ? 31.1 µM (active)

Required: AC50, one value per compound below.
1. CC(C)Cc1ccc(C(C)C(=O)O)cc1 (stereo not drawn)
2. CC(C)CCCC(C)(C)O
3. CC=CC(=O)C1=C(C)C=CCC1(C)C
4. C[C@]12CC[C@@H]3c4ccc(O)cc4CC[C@H]3[C@@H]1CC[C@@H]2O
5. OCCN1CCOCC1
6. O=C(c1ccc(OCCN2CCCCC2)cc1)c1c(-c2ccc(O)cc2)sc2cc(O)ccc12
7. CC(=O)CCC=C(C)CCC=C(C)C
8. CCCCN(CCO)CCO

1: inactive; 2: inactive; 3: inactive; 4: 12.4 µM (active); 5: inactive; 6: 33.2 µM (active); 7: inactive; 8: inactive
